The origin of these recorded values is paper PMC4336329.

TARGET UNDER TEST: human ether-à-go-go-related gene (hERG) potassium channel (human, UniProt Q12809);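 also: peak tail current of the secondary pulse compared with the same well before compound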
Sequence (Q12809 whole entry, looked up): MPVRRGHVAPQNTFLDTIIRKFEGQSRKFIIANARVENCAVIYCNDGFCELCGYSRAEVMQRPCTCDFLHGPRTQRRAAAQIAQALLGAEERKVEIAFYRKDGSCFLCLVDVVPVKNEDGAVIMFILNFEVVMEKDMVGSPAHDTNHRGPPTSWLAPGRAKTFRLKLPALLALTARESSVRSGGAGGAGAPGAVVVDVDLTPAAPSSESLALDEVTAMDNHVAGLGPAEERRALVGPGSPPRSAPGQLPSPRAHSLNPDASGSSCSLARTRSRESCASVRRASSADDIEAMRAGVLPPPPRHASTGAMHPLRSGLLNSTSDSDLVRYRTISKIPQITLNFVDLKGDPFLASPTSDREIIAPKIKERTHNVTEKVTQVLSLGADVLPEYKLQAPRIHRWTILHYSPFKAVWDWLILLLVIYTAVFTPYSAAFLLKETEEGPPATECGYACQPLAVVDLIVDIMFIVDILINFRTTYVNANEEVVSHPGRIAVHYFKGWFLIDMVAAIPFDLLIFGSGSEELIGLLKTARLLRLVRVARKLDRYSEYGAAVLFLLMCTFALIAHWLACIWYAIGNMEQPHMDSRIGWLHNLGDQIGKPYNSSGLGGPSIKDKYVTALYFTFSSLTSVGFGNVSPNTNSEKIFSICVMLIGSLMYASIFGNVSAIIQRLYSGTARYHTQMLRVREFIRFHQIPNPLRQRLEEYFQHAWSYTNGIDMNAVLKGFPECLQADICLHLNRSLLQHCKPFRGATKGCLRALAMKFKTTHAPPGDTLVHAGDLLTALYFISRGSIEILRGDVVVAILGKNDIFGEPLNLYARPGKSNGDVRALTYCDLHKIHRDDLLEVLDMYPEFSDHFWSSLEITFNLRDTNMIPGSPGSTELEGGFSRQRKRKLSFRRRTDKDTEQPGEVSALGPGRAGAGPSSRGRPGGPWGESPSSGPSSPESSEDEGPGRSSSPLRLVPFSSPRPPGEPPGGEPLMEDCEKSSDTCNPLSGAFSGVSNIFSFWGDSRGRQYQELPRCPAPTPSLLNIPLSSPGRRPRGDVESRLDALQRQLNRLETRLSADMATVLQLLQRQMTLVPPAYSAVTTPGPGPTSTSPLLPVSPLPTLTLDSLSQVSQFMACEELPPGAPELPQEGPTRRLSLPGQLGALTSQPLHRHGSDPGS
TEST PROTOCOL: primary screen, population patch clamp on CHO cells stably expressing hERG; higher = less effect of the substance
About 14,000 (4.5%) of roughly 310,000 compounds showed an effect of 50% or more. The effect is printed as a negative number. Many of the other results were omitted from the sample, so strong results are more common in it than they were.
MEASUREMENT TYPE: hERG current change (%, negative = inhibition) at 10uM (%)
Only the number, expressed in %, is required.

These solved cases illustrate the format of a correct answer.
CC1(C)CC(=O)C2=C(C1)NC(=O)NC2c1ccccc1Cl (stereo not shown) :: 16.3
O=C(NCC1CCCO1)c1ccc2c(=O)n(Cc3ccco3)c(SCC(=O)N3CCCC3)nc2c1 (stereo not shown) :: -79.3
COc1cccc(C2CCCN2Cc2nc(-c3cnccn3)no2)c1 (stereo not shown) :: 7.84
C[n+]1cn(Cc2cc(Cl)ccc2OC(F)F)c2ccccc21.[Br-] :: 2.96

Fill in the blank: the reported hERG current change (%, negative = inhibition) at 10uM of COc1cc(/C=N/Nc2ccc(Cl)c(C(=O)O)c2)ccc1OCC(=O)N1C(C)CCCC1C (stereo not shown) is ____.
16.5

Same for O=C(CNS(=O)(=O)c1ccccc1)OCC(=O)c1ccc([N+](=O)[O-])cc1
-3.22

Next: CC/C(=N\O)C(C)(C)/[N+]([O-])=C/c1ccc(Br)cc1
5.28

Consider next the molecule O=C(CCl)N=c1sccn1Cc1ccccc1Cl in the same way.
-5.61

// next record CCOC(=O)C(C)n1nc(-c2ccccc2)c2ccccc2c1=O (stereo not shown)
15.9

What about COc1ccc(C(=O)NCc2nnc(SCC(=O)N3CCCCC3)o2)cc1 ?
29.8

---

TARGET UNDER TEST: human ether-à-go-go-related gene (hERG) potassium channel (human, UniProt Q12809);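 also: peak tail current of the secondary pulse compared with the same well before compound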
TEST PROTOCOL: primary screen, population patch clamp on CHO cells stably expressing hERG; higher = less effect of the substance
The campaign covered roughly 310,000 compounds. About 14,000 (4.5%) showed an effect of 50% or more. Effects have a minus sign here. For the sample, strong results were picked, then their nearest neighbours and some compounds at random.
MEASUREMENT TYPE: hERG current change (%, negative = inhibition) at 10uM (%)
// units = %; emit number, no label

Cc1cc(N2CCC(C(=O)N3CCN(c4cccc(C)c4C)CC3)CC2)n2ncnc2n1 :: -68.7

The record that follows has no hERG current change (%, negative = inhibition) at 10uM shown yet.
Quick one: hERG current change (%, negative = inhibition) at 10uM of Cc1ccc(CNC(=O)Nc2ccccc2)n1C ?
12.3

---

Catalogue of hERG current change (%, negative = inhibition) at 10uM readings, one per entry.
TARGET UNDER TEST: human ether-à-go-go-related gene (hERG) potassium channel (human);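 also: peak tail current of the secondary pulse compared with the same well before compound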
TEST PROTOCOL: primary screen, population patch clamp on CHO cells stably expressing hERG; higher = less effect of the substance
The campaign covered roughly 310,000 compounds. About 14,000 (4.5%) showed an effect of 50% or more. The effect is printed as a negative number. This is one part of a sample in which strong results are shown more often than they occur.
Kindly answer with a numeric value in %, unit omitted.

Please review the entries below; each comes with its answer.
Cc1ccc(S(=O)(=O)N2CCN(CC(=O)N/N=C/C=C/c3ccccc3)CC2)cc1 :: -73.8
CCc1nnc(NC(=O)C2CC(=O)N(c3ccc4c(c3)OCCO4)C2)s1 (stereo not drawn) :: 4.32
O=C(O)COc1ccccc1/C=N/NC(=O)CN1CCN(S(=O)(=O)c2ccc(Br)cc2)CC1 :: 4.89
Cc1ccc(S(=O)(=O)N2CCN(CC(=O)N/N=C/c3ccc(C)o3)CC2)cc1 :: -38.9
Cc1ccc(S(=O)(=O)N2CCN(CC(=O)N/N=C\c3ccccn3)CC2)cc1 :: -36.3

Quick check: hERG current change (%, negative = inhibition) at 10uM of Cc1ccc(S(=O)(=O)N2CCN(CC(=O)N/N=C\C(Cl)=C\c3ccccc3)CC2)cc1 ?
-48

Similarly, CC(C)(C)NC(=O)Cn1nnc(-c2ccccc2Cl)n1 ?
6.43

Queued: CNC[C@H](NC[C@@H](NCCCc1ccccc1)c1ccccc1)[C@H](C)O
11.7

Lookup Cc1ccc(S(=O)(=O)N2CCN(CC(=O)N/N=C/c3ccccc3OCC(=O)O)CC2)cc1
10.5
